tgt: X-box-binding protein 1 (Homo sapiens) (UniProt P17861)
Sequence (P17861 whole entry, looked up): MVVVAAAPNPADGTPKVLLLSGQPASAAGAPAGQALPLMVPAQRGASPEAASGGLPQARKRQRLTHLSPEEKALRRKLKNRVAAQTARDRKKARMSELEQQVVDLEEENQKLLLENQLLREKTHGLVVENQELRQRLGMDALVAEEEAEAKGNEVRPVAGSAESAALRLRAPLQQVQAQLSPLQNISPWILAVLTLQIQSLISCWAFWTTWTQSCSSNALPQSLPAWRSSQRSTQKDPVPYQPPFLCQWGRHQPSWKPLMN
experiment: ATG_Xbp1_CIS: Attagene CIS-FACTORIAL HepG2 Assay for human X-box Binding Protein 1 (XBP1) (AID 2282972)
condition-summary: HepG2 XBP1 cis-element reporter, Attagene multiplex; actives raise or lower the signal
Active and inactive are the calls of the source. How the source made its calls: active means hit-call score of the fitted dose curve at least 0.9, where 1 is the maximum; inactive means score below 0.9.
quantity-measured: AC50

Field: example entries. Status: answers known.
compound	AC50
O=C1C2CC=CCC2C(=O)N1SC(Cl)(Cl)Cl (stereo unspecified)	inactive
CC1(C)C(C=C(Cl)Cl)C1C(=O)OC(C#N)c1cccc(Oc2ccccc2)c1 (stereo unspecified)	inactive
CCOc1nc(F)cc2nc(S(=O)(=O)Nc3c(Cl)cccc3Cl)nn12	inactive
CC1(C)CCC(=Cc2ccc(Cl)cc2)C1(O)Cn1cncn1 (stereo unspecified)	inactive
CO/N=C(/C1=NOCCO1)c1ccccc1Oc1ncnc(Oc2ccccc2Cl)c1F	574 nM (active)

# input for lookup
Task: Look at this compound and give its reported AC50. N#Cc1c(Cl)cccc1Cl
Output: inactive

The origin of these recorded values is PubChem BioAssay (EPA / NIEHS).
